Could you please report measured koff for the items listed next?
System Under Test: T1, cynomolgus monkey CTLA4-his protein (Acro biosystems, Cat#CT4-C5227) (cynomolgus monkey, UniProt G7PL88 36-161)
T1 construct: bought recombinant protein; also called Cynomolgus CTLA4-his; not shown: his tag
T1 sequence: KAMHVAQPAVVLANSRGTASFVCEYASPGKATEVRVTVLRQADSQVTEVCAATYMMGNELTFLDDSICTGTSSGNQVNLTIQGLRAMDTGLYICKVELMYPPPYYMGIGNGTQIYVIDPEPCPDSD
Test Description: SPR, Biacore; antibody captured on anti-human IgG CM5 chip, CTLA4-his as analyte
Could you give me the number in s⁻¹? Just the number is fine.

Any idea what its koff is? The binder is huD1D5-V9 (antibody, human IgG4 S228P, kappa, V domains shown, humanized IgG4/kappa; cell supernatant on Octet, purified antibody in Biacore, ELISA, FACS and the functional assay; also called hu CTLA4 D1D5-V9; huDID5-V9) VH: EVQLVESGGGLVKPGGSLRLSCAASGFTFSDYGMAWVRQAPGKGPEWVAFISNLAYSVYYADTETGRFTISRDDAKNSLYLQMNSLRAEDTAVYYCARSGLPYAMDYWGQGTTVTVSS VL: DIQMTQSPSSLSASVGDRVTITCRASQDISNYLNWYQQKPGKVPKLLIYYISRLHSGVPSRFSGSGSGTDFTLTISSLQPEDVATYYCQQGRMLPWTFGGGTKVEIKR
0.000576

Also chimeric D1D5 anti-CTLA4 antibody (antibody, human IgG4 S228P, kappa, V domains shown, mouse variable domains on human IgG4/kappa, made in 293F cells) VH: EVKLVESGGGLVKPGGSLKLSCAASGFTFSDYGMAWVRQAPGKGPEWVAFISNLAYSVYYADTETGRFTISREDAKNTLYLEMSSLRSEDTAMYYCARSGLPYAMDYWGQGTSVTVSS VL: DIQMTQTTSSLSASLGDRVTISCRASQDISNYLNWYQQKPDGTVKLLIYYISRLHSGVPSRFSGSGSGTDFSLTISNLEQEDIATYFCQQGRMLPWTFGGGTRLEIKR ?
0.000505

Next record, please: chimeric C1D1 anti-CTLA4 antibody (antibody, human IgG4 S228P, kappa, V domains shown, mouse variable domains on human IgG4/kappa, made in 293F cells) VH: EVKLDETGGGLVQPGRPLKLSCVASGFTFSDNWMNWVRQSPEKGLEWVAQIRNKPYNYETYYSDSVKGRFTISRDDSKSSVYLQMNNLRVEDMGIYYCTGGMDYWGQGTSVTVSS VL: DIQMTQSPASLSASVGETVTITCGASEIIYGALNWYQQKQGKSPQLLIYGATNLADGMSSRFSGSGSGRQYSLKISSLHPDDAATYYCQKILSPPPWTFGGGTKLEIKR
0.000398

# iterate: huC1D1-V8 (antibody, human IgG4 S228P, kappa, V domains shown, humanized IgG4/kappa; cell supernatant on Octet, purified antibody in Biacore, ELISA, FACS and the functional assay; also called hu CTLA4 C1D1-V8) VH: EVQLVESGGGLVQPGRSLRLSCTASGFTFSDNWMNWVRQAPGKGLEWVGQIRNKPYNYETYYSDSVKGRFTISRDDSKSIAYLQMNSLKTEDTAVYYCTGGMDYWGQGTTVTVSS VL: DIQMTQSPSSLSASVGDRVTITCGASEIIYGALNWYQQKPGKSPKLLIYGATNLADGVPSRFSGSGSGTDFTLTISSLQPEDVATYYCQKILSPPPWTFGGGTKVEIKR
0.00112
